These measurements were taken from PubChem BioAssay AID489003.

- target under test: Broad substrate specificity ATP-binding cassette transporter ABCG2 (Homo sapiens) (UniProt Q9UNQ0)
- Sequence (Q9UNQ0 whole entry, looked up): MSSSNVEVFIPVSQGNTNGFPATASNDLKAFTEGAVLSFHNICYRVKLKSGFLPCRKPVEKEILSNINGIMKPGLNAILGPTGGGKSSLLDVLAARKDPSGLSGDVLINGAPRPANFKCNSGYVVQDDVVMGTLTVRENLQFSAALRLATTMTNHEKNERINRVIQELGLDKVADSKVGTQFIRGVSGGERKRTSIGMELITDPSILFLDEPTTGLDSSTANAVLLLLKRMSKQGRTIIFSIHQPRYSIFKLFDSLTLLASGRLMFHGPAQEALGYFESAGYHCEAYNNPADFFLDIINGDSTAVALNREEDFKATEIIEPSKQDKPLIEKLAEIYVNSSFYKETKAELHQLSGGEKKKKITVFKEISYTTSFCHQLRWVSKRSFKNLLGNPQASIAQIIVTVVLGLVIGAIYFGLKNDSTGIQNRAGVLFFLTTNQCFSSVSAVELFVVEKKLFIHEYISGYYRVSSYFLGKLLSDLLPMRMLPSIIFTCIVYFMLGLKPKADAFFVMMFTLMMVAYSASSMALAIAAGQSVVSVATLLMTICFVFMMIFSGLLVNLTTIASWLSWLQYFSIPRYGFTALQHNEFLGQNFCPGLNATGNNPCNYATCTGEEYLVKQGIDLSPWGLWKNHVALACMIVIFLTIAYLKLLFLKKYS
- test details: blockade of ABCG2-mediated dye efflux – Ig-MXP3 cells, JC-1 substrate, flow cytometry, dose response (AID 489003)
- assay conditions: JC-1 efflux
Activity calls are given as the source filed them.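 Rule for the calls: active = compounds whose weighted score, built from EC50 under 10 micromolar and fitted span over a set limit, tops 52; inactive = the rest.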
One label from this list, please: 1 (active), -1 (inactive)

Tell me the assay call for "CC(=O)N1CCN(c2cc(-c3ccco3)nc3cc(-c4cccc(Cl)c4)nn23)CC1" please.
1

For "COc1cccc(-c2cc3nc(-c4cccc(C#N)c4)cc(N4CCN(C(=O)c5ccoc5)CC4)n3n2)c1" , which call appears in the assay record?
1

Short answer needed: outcome of this test for "Cc1nc2cc(-c3ccc(F)cc3)nn2c(N2CCN(C(=O)c3ccco3)CC2)c1C" ?
1

State the result this test recorded for "Cc1cc(N2CCN(C(=O)c3ccco3)CC2)n2ncc(-c3ccccc3)c2n1" .
1

Short answer needed: outcome of this test for "O=C(c1ccoc1)N1CCN(c2cc(-c3ccccc3)nc3cc(-c4ccncc4)nn23)CC1" ?
1

Answer briefly: the call reported for "CC(=O)N1CCN(c2c(C)c(C)nc3cc(-c4ccc(F)cc4)nn23)CC1" in this assay.
-1

Dear colleague, could you share the recorded outcome for "Cc1nc2cc(-c3cccc(F)c3)nn2c(N2CCN(C(=O)c3ccco3)CC2)c1C" when you have a moment?
1

# outcome recorded in this test, key = "Cc1nc2cc(-c3ccc4c(c3)OCO4)nn2c(N2CCN(C(=O)c3ccoc3)CC2)c1C"
1

###

- target under test: Broad substrate specificity ATP-binding cassette transporter ABCG2 (Homo sapiens)
- test details: blockade of ABCG2-mediated dye efflux – Ig-MXP3 cells, JC-1 substrate, flow cytometry, dose response (AID 489003)
- assay conditions: JC-1 efflux
measure: EC50

Need EC50, item "COc1ccc(-c2cc3nc(-c4ccco4)cc(N4CCN(C(=O)c5ccoc5)CC4)n3n2)cc1"
1800 nM

Looking for the measured EC50 of "CN(C)c1cc(-c2ccco2)nc2cc(-c3ccccc3)nn12" , can you help?
8870 nM

Look up EC50: "O=C(c1ccoc1)N1CCN(c2cc(-c3cccc(F)c3)nc3cc(-c4ccccc4)nn23)CC1"
2110 nM

So what does the record say about EC50 for "Cc1cc(N2CCN(C(=O)c3ccco3)CC2)n2nc(-c3ccccc3)nc2n1" ?
9430 nM

Look up EC50 for this compound: "Cc1ccc(-c2cc3nc(-c4ccco4)cc(N4CCN(C(=O)c5ccoc5)CC4)n3n2)cc1"
8180 nM

Given "COc1ccc(-c2cc3nc(-c4ccccc4)cc(N4CCN(C(=O)c5ccoc5)CC4)n3n2)cc1" , state its recorded EC50.
1620 nM

I would be grateful if you could share the reported EC50 for "COc1cccc(-c2cc3nc(-c4ccccc4)c(C)c(N4CCN(C(=O)c5ccoc5)CC4)n3n2)c1" .
1670 nM

Look up EC50: "COc1cc(OC)cc(-c2cc3nc(C)c(C)c(N4CCN(C(=O)c5ccoc5)CC4)n3n2)c1"
664 nM

Requested field: EC50. Item: "COc1ccc(-c2cc3nc(C)c(C)c(N4CCN(C(=O)c5ccoc5)CC4)n3n2)cc1"
1200 nM

###

- target under test: UniProtKB Q9UNQ0
- test details: blockade of ABCG2-mediated dye efflux – Ig-MXP3 cells, JC-1 substrate, flow cytometry, dose response (AID 489003)
- assay conditions: JC-1 efflux
Calls of active or inactive are those of the source.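 The calls were made as follows: active = compounds whose weighted score, built from EC50 under 10 micromolar and fitted span over a set limit, tops 52; inactive = the rest.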
Pick from 1 (active), 0 (inactive) when you respond.

Called result for "COc1ccc(-c2[nH]nc3nc(N4CCN(C(=O)c5ccoc5)CC4)cc(C(F)(F)F)c23)cc1"
1

Assay outcome for "O=C(c1ccoc1)N1CCN(c2cc(-c3cccc(F)c3)nc3cc(-c4cccc(Cl)c4)nn23)CC1" : what was it?
1

Assay result, entry "O=C(Nc1ccccc1)C1CCN(c2cc(-c3ccco3)nc3cc(-c4ccccc4)nn23)CC1" — outcome?
1

Can you look up the reported call for "CC(C)(C)c1cc(N2CCN(C(=O)c3ccoc3)CC2)n2nc(-c3ccccc3)cc2n1" for me?
0

State the result this test recorded for "Cc1ccc(-c2nc3nc(C)cc(N4CCN(C(=O)c5ccco5)CC4)n3n2)cc1" .
1

How did this test come out for "O=C(c1ccsc1)N1CCN(c2cc(-c3ccco3)nc3cc(-c4ccccc4)nn23)CC1" ?
1

State the result this test recorded for "CN(CCN(C)c1cc(-c2ccco2)nc2cc(-c3ccccc3)nn12)C(=O)c1ccoc1" .
0

Call for entry "CNCCCN(C)c1cc(-c2ccco2)nc2cc(-c3ccccc3)nn12" :
0

What outcome does the record of this test show for "COc1cccc(-c2cc3nc(C)c(C)c(N4CCN(Cc5ccco5)CC4)n3n2)c1" ?
1

Each molecule tested received a call. Report the one for "Cc1c(-c2ccco2)nc2cc(-c3ccccc3)nn2c1N1CCN(C(=O)c2ccoc2)CC1" .
1

Status in this test for "O=C(c1ccoc1)N1CCN(c2cc(-c3cccs3)nc3cc(-c4ccccc4)nn23)CC1" ?
1

Any idea what this test logged for "O=C(OCc1ccccc1)N1CCN(c2cc(-c3ccco3)nc3cc(-c4ccccc4)nn23)CC1" ?
1

Would you mind telling me which call this test gave "CNCCN(C)c1cc(-c2ccco2)nc2cc(-c3ccccc3)nn12" ?
0

Fill in: this test's call for "CC(=O)N1CCN(c2cc(-c3ccccc3)nc3cc(-c4ccccc4)nn23)CC1" is ___
1

Could you please tell me the result logged for "COc1ccc(-c2cc3nc(C)c(C)c(N4CCN(C(=O)c5ccco5)CC4)n3n2)cc1" in this assay?
1

What call does the record list for "O=C(c1ccoc1)N1CCN(c2cc(-c3ccco3)nc3cc(-c4cccc(Cl)c4)nn23)CC1" ?
1

Could you please tell me the result logged for "O=C(c1ccoc1)N1CCN(c2cc(-c3ccccc3F)nc3cc(-c4ccccc4)nn23)CC1" in this assay?
1

Just curious, what result did "Cc1nc2cc(-c3ccc(Br)cc3)nn2c(N2CCN(C(=O)c3ccoc3)CC2)c1C" get here?
1

Look up the recorded call for "COc1ccc(-c2cc3nc(C)c(C)c(N4CCN(C(C)=O)CC4)n3n2)cc1" in this test.
1

# fetch the recorded call for "O=C(c1ccoc1)N1CCN(c2cc(-c3ccco3)nc3cc(-c4ccco4)nn23)CC1" here
1

Just curious, what result did "COc1cccc(-c2cc(N3CCN(C(=O)c4ccoc4)CC3)n3nc(-c4ccccc4)cc3n2)c1" get here?
1

Given "Cc1nn2c(N3CCN(C(=O)c4ccco4)CC3)cc(C(C)(C)C)nc2c1-c1ccc(Cl)cc1" , state the outcome it received in this test.
1

Please share the test call associated with "O=C(c1ccoc1)N1CCCN(c2cc(-c3ccco3)nc3cc(-c4ccccc4)nn23)C1" .
1

What did this assay record as the result for CC1CN(C(=O)c2ccoc2)CCN1c1cc(-c2ccco2)nc2cc(-c3ccccc3)nn12 (stereo not drawn) ?
1

Hi team, can someone confirm the assay call for "O=C(c1ccco1)N1CCN(c2cc(-c3ccco3)nc3cc(-c4ccccc4)nn23)CC1" ?
1

Identify the outcome logged in this assay for the molecule shown: "COc1cccc(-c2cc3nc(C)c(C(C)C)c(N4CCN(C(=O)c5ccoc5)CC4)n3n2)c1"
1

Tell me the recorded outcome of this test for "Cc1cccc(-c2cc3nc(-c4ccco4)cc(N4CCN(C(=O)c5ccoc5)CC4)n3n2)c1" .
1

Recorded call for "CCc1c(C)nc2cc(-c3cccc(OC)c3)nn2c1N1CCN(C(=O)c2ccoc2)CC1" ?
1

Query: recorded result category for "COc1cccc(-c2cc3nc(C)cc(N4CCN(C(=O)c5ccoc5)CC4)n3n2)c1" in this test
1

Assay result, entry O=C(C1CCCO1)N1CCN(c2c3c(nc4cc(-c5cccc(F)c5)nn24)CCCC3)CC1 (stereo not drawn) — outcome?
0

How was "Cc1cc(C(=O)N2CCN(c3cc(-c4ccco4)nc4cc(-c5ccccc5)nn34)CC2)c(C)o1" classified in this test?
1

Each molecule tested received a call. Report the one for "Cc1coc(C)c1C(=O)N1CCN(c2cc(-c3ccco3)nc3cc(-c4ccccc4)nn23)CC1" .
1

Hello, I am checking results. What call was entered for "COc1cccc(-c2cc3nc(-c4ccco4)cc(N4CCN(C(C)=O)CC4)n3n2)c1" ?
1

Lab log entry: "COc1ccccc1-c1cc(N2CCN(C(=O)c3ccoc3)CC2)n2nc(-c3ccccc3)cc2n1" — outcome as called in the assay?
1

// return assay outcome for "O=C(c1ccoc1)N1CCN(c2cc(-c3ccco3)nc3cc(-c4ccc(Cl)cc4)nn23)CC1"
1

Field: outcome | Entry: "O=C(c1ccoc1)N1CCN(c2cc(-c3ccco3)nc3cc(-c4cccs4)nn23)CC1"
1

Query: recorded result category for "Cc1nc2cc(-c3ccccc3)nn2c(N2CCN(C(=O)c3ccoc3)CC2)c1C" in this test
1

GET /call?item= "Cc1nc2cc(-c3cccc(Cl)c3)nn2c(N2CCN(C(=O)c3ccoc3)CC2)c1C" returns the recorded outcome of this test.
1
